# assay_comment: alpha-synuclein stem-loop luciferase translation blockers – H4 neuroglioma cells, luminescence, confirmation (AID 1988)
# Type: functional, cell-based
Activity calls are given as the source filed them.
endpoint_label: EC50

- COCCn1c(=O)c2c(nc3n2CC(C)CN3CCc2ccccc2)n(C)c1=O (configuration not stated): > 120 µM (not active)
- CCCNC(=O)c1ccc(N2CCC3(CC2)CC(c2ccccc2)=NO3)c(NC(=O)c2ccccc2)c1: 12.7 µM (active)
- O=C1CCCc2c1[nH]c1ccc(Br)cc21: 9.02 µM (active)
- O=[N+]([O-])c1ccc(-c2nc(C(Cl)Cl)c3ccccc3n2)cc1: 0.336 µM (active)
- Cc1ccc(-n2c(SCC(=O)NCCC3=CCCCC3)nc3nnc(C)c-3c2N)cc1Cl: > 120 µM (not active)
- O=C(C1CC12CCCC2)N1CCC(CO)(Cc2ccccc2Cl)CC1 (configuration not stated): > 120 µM (not active)
- Cc1c(C(=O)OCC(C)C)[nH]c2c1C(=O)CC(c1ccco1)C2 (configuration not stated): 0.212 µM (active)

----------
# test_system: Sentrin-specific protease 8 (Homo sapiens, UniProt Q96LD8);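 also: luminescence read-out of SENP8 inhibition, dose-response confirmation following an ultra-high-throughput screen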
# Sequence (Q96LD8 whole entry): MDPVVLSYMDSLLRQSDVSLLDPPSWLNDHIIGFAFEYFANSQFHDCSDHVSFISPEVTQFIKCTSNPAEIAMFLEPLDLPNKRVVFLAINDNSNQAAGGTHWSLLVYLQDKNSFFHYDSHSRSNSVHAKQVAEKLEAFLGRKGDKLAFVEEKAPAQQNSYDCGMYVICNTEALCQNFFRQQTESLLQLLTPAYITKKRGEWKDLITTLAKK
# Format: functional
The source made the active and inactive calls.
Classes used: active, inactive

- COc1cc2ccccc2cc1C(=O)Nc1ccccc1Cl: active
- COc1cccc(NC(=O)Nc2ccc3c(c2)CCC3)c1: inactive
- Oc1nc(Nc2ccccc2Cl)cc2ccccc12: active
- COc1ccc(/C=N/Nc2nncc3ccccc23)c(OC)c1: active
- Cc1ccc(C(=O)Nc2nc(C)c(C(=O)Nc3ccc4c(c3)CCC4)s2)cc1: inactive
- O=C(N/N=C/c1cccc(Oc2ccccc2)c1)c1cccc(O)c1: active

----------
IC50 for assorted compounds
# test_system: Large T antigen (Simian virus 40, UniProt P03070);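 also: Confirmatory-stage PubChem screen for compounds that inhibit SV40 T antigen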
# Sequence (P03070 whole entry): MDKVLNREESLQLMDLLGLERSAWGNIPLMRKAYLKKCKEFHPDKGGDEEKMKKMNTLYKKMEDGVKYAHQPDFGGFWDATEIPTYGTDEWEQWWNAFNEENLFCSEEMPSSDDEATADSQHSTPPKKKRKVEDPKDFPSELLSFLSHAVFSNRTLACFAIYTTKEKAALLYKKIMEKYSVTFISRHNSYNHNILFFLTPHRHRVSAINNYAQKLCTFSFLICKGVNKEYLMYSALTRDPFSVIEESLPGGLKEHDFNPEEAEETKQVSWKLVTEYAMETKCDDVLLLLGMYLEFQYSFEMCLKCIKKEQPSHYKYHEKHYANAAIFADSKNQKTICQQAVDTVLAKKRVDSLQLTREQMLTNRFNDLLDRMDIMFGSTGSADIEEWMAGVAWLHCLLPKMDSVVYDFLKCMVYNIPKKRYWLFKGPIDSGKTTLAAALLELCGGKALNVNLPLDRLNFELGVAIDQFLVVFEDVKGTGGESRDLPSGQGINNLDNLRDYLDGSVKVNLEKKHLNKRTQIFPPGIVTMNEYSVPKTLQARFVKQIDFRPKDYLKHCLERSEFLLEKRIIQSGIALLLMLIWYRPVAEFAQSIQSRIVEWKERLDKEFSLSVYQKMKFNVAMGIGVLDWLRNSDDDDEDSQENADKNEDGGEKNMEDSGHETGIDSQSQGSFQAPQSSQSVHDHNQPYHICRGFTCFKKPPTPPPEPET
# Assay type: functional, Betapolyomavirus macacae
Calls of active or inactive are those of the source.
endpoint_label: IC50

* O=c1nc2n(c(O)c1C(c1c(O)nc3n(c1=O)CCS3)c1cccc3ccccc13)CCS2 (stereo unspecified) | > 100 µM (active)
* COc1ccccc1NC(=O)Oc1ccc(NC(=O)c2ccco2)cc1 | 22.9 µM (active)
* Cc1ccccc1NC(=O)c1cc(N)ccc1N1CCCCC1 | 18.9 µM (active)
* Cc1cc(C)c2c(=O)n(CC(=O)N3CCC(N4CCCCC4)CC3)sc2n1 | 28.1 µM (active)
* O=C(CCN1C(=O)/C(=C\c2ccco2)SC1=S)Nc1ccc(C(=O)O)c(O)c1 | > 100 µM (active)
* CC(/C=C/c1ccc(O)cc1)=N/O | 8.82 µM (active)

----------
IC50 for assorted compounds
# test_system: Protein skinhead-1 (Caenorhabditis elegans)
# Sequence (P34707 whole entry): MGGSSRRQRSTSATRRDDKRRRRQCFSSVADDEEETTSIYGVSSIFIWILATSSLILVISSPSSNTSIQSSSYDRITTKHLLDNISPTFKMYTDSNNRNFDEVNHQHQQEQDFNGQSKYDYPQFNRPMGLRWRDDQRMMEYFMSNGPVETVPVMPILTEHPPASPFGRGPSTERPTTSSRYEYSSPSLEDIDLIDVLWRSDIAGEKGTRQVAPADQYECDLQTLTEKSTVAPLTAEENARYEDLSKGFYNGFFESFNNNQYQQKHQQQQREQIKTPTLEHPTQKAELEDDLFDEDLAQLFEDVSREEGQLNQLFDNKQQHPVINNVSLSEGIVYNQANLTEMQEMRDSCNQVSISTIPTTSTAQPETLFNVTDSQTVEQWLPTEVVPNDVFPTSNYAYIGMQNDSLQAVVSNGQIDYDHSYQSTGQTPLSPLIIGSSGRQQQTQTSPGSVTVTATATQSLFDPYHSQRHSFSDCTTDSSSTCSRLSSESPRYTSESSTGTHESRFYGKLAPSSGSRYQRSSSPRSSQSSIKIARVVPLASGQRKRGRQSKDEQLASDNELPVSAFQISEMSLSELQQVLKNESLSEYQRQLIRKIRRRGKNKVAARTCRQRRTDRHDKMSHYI
# Type: functional
Active and inactive are the calls of the source.
endpoint_label: IC50

* Cc1cc(OCc2cccc(Cl)c2)c(C)cc1CN1CCOCC1 | 6.33 µM (active)
* c1ccc(-c2ccc(OCCCNC3CCCC3)cc2)cc1 | 20.8 µM (active)
* Fc1ccc(-c2nc3ccc(Br)cn3c2Cc2ccccc2C(F)(F)F)cc1 | > 100 µM (inactive)
* C(=C\c1nnc(-c2cccs2)o1)/c1ccccc1 | 11.9 µM (active)
* Cc1ccc(C(=O)Nc2nc(-c3ccc(F)cc3)cs2)o1 | > 100 µM (inactive)
* Cc1ccc(N2C(=O)NC(=O)/C(=C/Nc3ccc(S(=O)(=O)N(C)C)cc3)C2=O)cc1 | > 100 µM (inactive)
* O=C(CCn1c(=S)[nH]c2ccccc2c1=O)NCCCN1CCCC1=O | > 100 µM (inactive)
* CCOCC(=O)Nc1ccc(C)c(Cl)c1 | > 100 µM (inactive)
* CCCNC(=O)c1ccc2snnc2c1 | > 100 µM (inactive)
* CCNC(=O)C1(C)CCCN1C(=O)c1ccc(C#N)cc1 (stereo not given) | > 100 µM (inactive)

# credit: ChEMBL document CHEMBL1201862
